# Test System: YWHAQ (UniProt P27348)
# Sequence (P27348 whole entry, looked up): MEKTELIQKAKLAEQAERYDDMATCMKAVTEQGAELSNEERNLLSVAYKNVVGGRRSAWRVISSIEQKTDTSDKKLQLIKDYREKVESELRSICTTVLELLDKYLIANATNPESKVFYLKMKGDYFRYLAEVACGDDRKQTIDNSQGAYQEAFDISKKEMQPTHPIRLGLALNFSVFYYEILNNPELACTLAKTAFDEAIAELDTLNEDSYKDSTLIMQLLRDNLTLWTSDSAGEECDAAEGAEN
# Experiment Notes: log2 fold change, soluble protein after heating vs DMSO (PISA); higher = thermal stabilisation; K562 cells, 10 uM, 30 min; active = over 0.2 and 3.5 SD of the protein, either way, in both replicates (recomputed)
Targets with a hit are over-represented here; the source holds about 7,900 in all. About 0.6% of all pairs of compound and target were hits.
Assay Endpoint: log2 fold change
Simply state the number, no unit and no words.

Hello, I am looking for reported log2 fold change with YWHAQ (UniProt P27348) for NC(=O)c1cnc(N[C@@H]2CCCC[C@@H]2N)nc1Nc1cccc(-n2nccn2)c1 . Could you help? 0.172

Hello, I am looking for reported log2 fold change with YWHAQ (UniProt P27348) for CNC(=O)c1ccc(Nc2ncc(C(F)(F)F)c(NCc3nccnc3N(C)S(C)(=O)=O)n2)cc1 . Could you help? 0

###

# Test System: ZADH2 (UniProt Q8N4Q0)
# Sequence (Q8N4Q0 whole entry, looked up): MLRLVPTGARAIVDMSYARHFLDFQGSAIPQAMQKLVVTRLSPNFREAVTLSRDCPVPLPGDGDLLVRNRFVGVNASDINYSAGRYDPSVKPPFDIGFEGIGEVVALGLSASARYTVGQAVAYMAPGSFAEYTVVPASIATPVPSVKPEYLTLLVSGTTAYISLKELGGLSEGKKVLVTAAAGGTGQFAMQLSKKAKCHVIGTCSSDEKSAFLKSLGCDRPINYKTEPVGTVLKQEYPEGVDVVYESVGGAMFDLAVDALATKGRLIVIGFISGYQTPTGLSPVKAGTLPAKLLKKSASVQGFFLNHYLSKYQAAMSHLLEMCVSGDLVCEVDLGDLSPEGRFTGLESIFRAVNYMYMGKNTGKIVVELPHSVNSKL
# Experiment Notes: log2 fold change, soluble protein after heating vs DMSO (PISA); higher = thermal stabilisation; K562 cells, 10 uM, 30 min; active = over 0.2 and 3.5 SD of the protein, either way, in both replicates (recomputed)
Targets with a hit are over-represented here; the source holds about 7,900 in all. About 0.6% of all pairs of compound and target were hits.
Assay Endpoint: log2 fold change

For the compound Cc1cccc(-c2[nH]c(C(C)(C)C)nc2-c2ccc3nccnc3c2)n1 , what log2 fold change is on record? -0.004 (inactive)

For the compound Cc1ccc(Sc2cncc3sc(C(N)=O)cc23)cc1 , what log2 fold change is on record? -0.015 (inactive)

For the compound CCCS(=O)(=O)Nc1ccc(F)c(C(=O)c2c[nH]c3ncc(-c4ccc(Cl)cc4)cc23)c1F [vemurafenib] , what log2 fold change is on record? 0 (inactive)

###

# Test System: ZC3H18 (UniProt Q86VM9)
# Sequence (Q86VM9 whole entry, looked up): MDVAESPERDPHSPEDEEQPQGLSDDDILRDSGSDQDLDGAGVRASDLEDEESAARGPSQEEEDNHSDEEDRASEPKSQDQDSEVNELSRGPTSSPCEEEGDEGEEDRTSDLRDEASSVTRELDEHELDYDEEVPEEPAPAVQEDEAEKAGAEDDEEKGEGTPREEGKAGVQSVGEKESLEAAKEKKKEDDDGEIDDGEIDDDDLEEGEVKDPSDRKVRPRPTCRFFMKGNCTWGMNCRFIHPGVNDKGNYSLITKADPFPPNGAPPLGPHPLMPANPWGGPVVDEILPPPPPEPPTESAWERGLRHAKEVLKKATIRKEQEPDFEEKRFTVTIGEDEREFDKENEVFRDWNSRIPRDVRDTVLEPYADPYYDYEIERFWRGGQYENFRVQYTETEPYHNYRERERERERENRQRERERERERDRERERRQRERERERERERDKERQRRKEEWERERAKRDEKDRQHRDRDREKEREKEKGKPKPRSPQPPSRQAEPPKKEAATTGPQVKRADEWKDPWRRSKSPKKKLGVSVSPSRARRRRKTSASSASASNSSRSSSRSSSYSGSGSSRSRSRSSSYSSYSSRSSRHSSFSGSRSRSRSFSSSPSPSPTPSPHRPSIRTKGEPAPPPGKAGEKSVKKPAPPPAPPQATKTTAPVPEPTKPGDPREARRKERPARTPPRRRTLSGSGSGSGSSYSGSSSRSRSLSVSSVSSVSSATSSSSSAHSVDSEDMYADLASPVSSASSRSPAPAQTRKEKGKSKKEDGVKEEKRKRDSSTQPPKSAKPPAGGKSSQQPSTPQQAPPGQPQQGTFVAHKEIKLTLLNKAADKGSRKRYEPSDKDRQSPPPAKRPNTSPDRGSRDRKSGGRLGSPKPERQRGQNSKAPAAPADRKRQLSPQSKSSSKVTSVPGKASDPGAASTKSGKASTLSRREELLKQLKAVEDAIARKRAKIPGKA
# Experiment Notes: log2 fold change, soluble protein after heating vs DMSO (PISA); higher = thermal stabilisation; K562 cells, 10 uM, 30 min; active = over 0.2 and 3.5 SD of the protein, either way, in both replicates (recomputed)
About 7,900 targets were measured; listed, in parts, are those with a hit and a random draw of the rest. About 0.6% of all pairs of compound and target were hits.
Reported log2 fold change values follow for various compounds
Simply state the number, no unit and no words.

A selection of reference data follows.
Compound	log2 fold change
CC(C)N(C[C@H]1O[C@@H](n2cnc3c(N)ncnc32)[C@H](O)[C@@H]1O)[C@H]1C[C@@H](CCc2nc3cc(C(C)(C)C)ccc3[nH]2)C1	0.053
Cc1cn(-c2cc(NC(=O)c3ccc(C)c(Nc4nccc(-c5cccnc5)n4)c3)cc(C(F)(F)F)c2)cn1	0.099
NC1(Cc2ccc(Cl)cc2)CCN(c2ncnc3[nH]ccc23)CC1	-0.124
CNc1nc(-c2ccc3c(N)n[nH]c3c2)cc(N2C[C@@H](C(=O)NC3CCCCC3)CC[C@H]2C)n1	-0.136
CCCc1cc(C)[nH]c(=O)c1CNC(=O)c1cc(-c2ccnc(N3CCN(C)CC3)c2)cc2c1cnn2C(C)C	-0.011
C=CC(=O)N1CCC[C@@H](n2nc(-c3ccc(Oc4ccccc4)cc3)c3c(N)ncnc32)C1	0.002
O=C1NC(=NCc2cccs2)S/C1=C\c1ccc2ncccc2c1	0.003
CC[C@@H]1C(=O)N(C)c2cnc(Nc3ccc(C(=O)N[C@H]4CC[C@H](N5CCN(CC6CC6)CC5)CC4)cc3OC)nc2N1C(C)C	-0.085
Oc1cc(-c2nc(-c3ccccc3)[nH]c2-c2ccncc2)ccc1Cl	0.015
CC[C@@H]1C(=O)N(C)c2cnc(Nc3ccc(C(=O)NC4CCN(C)CC4)cc3OC)nc2N1C1CCCC1	-0.008

For the compound Cc1nc(Nc2n[nH]c3c2CN(C(=O)N[C@H](CN(C)C)c2ccccc2)C3(C)C)c2sccc2n1 , what log2 fold change is on record? -0.145

For the compound CCn1c(C(=O)N(C2CC2)C2CC2)cc2c3c(ncn3C)c(Nc3cc(C)n(C)n3)nc21 , what log2 fold change is on record? 0.018

For the compound CC(C)(O)CC(=O)NCCn1ccc2ncnc(Nc3ccc(Oc4cccc(C(F)(F)F)c4)c(Cl)c3)c21 , what log2 fold change is on record? 0.034

For the compound CN(CCOc1ccc(C[C@@H]2SC(=O)NC2=O)cc1)c1ccccn1 (racemic) , what log2 fold change is on record? -0.036

For the compound CCCS(=O)(=O)Nc1ccc(F)c(C(=O)c2c[nH]c3ncc(-c4ccc(Cl)cc4)cc23)c1F , what log2 fold change is on record? -0.025

For the compound NC(=O)c1cnc(N[C@@H]2CCCC[C@@H]2N)nc1Nc1cccc(-n2nccn2)c1 , what log2 fold change is on record? -0.221

###

# Test System: YWHAB (UniProt P31946)
# Sequence (P31946 whole entry, looked up): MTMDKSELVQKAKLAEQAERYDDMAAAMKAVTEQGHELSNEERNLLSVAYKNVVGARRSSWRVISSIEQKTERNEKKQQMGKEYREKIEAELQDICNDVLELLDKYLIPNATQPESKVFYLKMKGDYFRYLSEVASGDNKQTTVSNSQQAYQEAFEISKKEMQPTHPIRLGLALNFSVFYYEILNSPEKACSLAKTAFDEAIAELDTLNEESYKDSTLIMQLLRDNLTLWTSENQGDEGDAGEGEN
# Experiment Notes: log2 fold change, soluble protein after heating vs DMSO (PISA); higher = thermal stabilisation; K562 cells, 10 uM, 30 min; active = over 0.2 and 3.5 SD of the protein, either way, in both replicates (recomputed)
Of roughly 7,900 targets only a part is listed; those with a hit were picked by preference. About 0.6% of all pairs of compound and target were hits.
# if value of log2 fold change reaches -0.03, tag criterion met; if it stays below, tag criterion not met

Compound	Label Class
Cc1ccc(NC(=O)c2ccc(CN3CC[C@H](N(C)C)C3)c(C(F)(F)F)c2)cc1Nc1nccc(-c2cncnc2)n1 [bafetinib]	criterion met
CN(CCOc1ccc(C[C@@H]2SC(=O)NC2=O)cc1)c1ccccn1 (racemic) [rosiglitazone]	criterion met

Answer whether log2 fold change of Nc1ccccc1NC(=O)c1ccc(CNC(=O)OCc2cccnc2)cc1 [entinostat] is greater than or equal to -0.03. criterion not met

Answer whether log2 fold change of CNc1nc(-c2ccc3c(N)n[nH]c3c2)cc(N2C[C@@H](C(=O)NC3CCCCC3)CC[C@H]2C)n1 is greater than or equal to -0.03. criterion met

Answer whether log2 fold change of Cc1ccc(NC(=O)c2cccc(N(C)C)c2)cc1NC(=O)c1ccc(O)cc1 is greater than or equal to -0.03. criterion met

Answer whether log2 fold change of CC(C)N(C[C@H]1O[C@@H](n2cnc3c(N)ncnc32)[C@H](O)[C@@H]1O)[C@H]1C[C@@H](CCc2nc3cc(C(C)(C)C)ccc3[nH]2)C1 [pinometostat] is greater than or equal to -0.03. criterion not met

Answer whether log2 fold change of Cc1cccc(CC(=O)N2CCc3c2ccc(-c2cn(C)c4ncnc(N)c24)c3F)n1 is greater than or equal to -0.03. criterion not met

Answer whether log2 fold change of Cc1cc(SCc2sc(-c3ccc(C(F)(F)F)cc3)nc2C)ccc1OCC(=O)O is greater than or equal to -0.03. criterion met

###

Reported log2 fold change values follow for various molecules
# Test System: YES1 (UniProt P07947)
# Sequence (P07947 whole entry, looked up): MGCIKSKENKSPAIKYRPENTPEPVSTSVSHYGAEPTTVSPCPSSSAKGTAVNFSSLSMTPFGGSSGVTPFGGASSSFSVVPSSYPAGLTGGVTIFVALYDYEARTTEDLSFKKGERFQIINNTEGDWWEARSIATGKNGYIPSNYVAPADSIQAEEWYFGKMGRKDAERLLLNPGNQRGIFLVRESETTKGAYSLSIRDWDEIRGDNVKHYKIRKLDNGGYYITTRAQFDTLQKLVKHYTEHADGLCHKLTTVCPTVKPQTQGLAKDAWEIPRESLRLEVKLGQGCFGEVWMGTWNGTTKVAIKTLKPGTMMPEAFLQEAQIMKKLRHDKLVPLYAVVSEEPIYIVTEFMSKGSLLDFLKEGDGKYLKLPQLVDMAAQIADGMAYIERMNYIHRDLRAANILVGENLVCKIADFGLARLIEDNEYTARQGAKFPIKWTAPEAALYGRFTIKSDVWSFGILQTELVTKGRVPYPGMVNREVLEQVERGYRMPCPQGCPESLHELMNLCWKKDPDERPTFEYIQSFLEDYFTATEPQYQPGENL
# Experiment Notes: log2 fold change, soluble protein after heating vs DMSO (PISA); higher = thermal stabilisation; K562 cells, 10 uM, 30 min; active = over 0.2 and 3.5 SD of the protein, either way, in both replicates (recomputed)
About 7,900 targets were measured; listed, in parts, are those with a hit and a random draw of the rest. About 0.6% of all pairs of compound and target were hits.

A selection of reference data follows.
Smi	log2 fold change
O=C1NC(=O)C(c2cnc3ccccn23)=C1c1cn2c3c(cc(F)cc13)CN(C(=O)N1CCCCC1)CC2	0.011 (inactive)
CCn1cc(-c2ccnc3[nH]c(-c4cccc(CN(C)C)c4)cc23)c(-c2ccc(NC(=O)N(C)C)cc2)n1	-0.241 (inactive)
CC[C@@H]1C(=O)N(C)c2cnc(Nc3ccc(C(=O)NC4CCN(C)CC4)cc3OC)nc2N1C1CCCC1	0.129 (inactive)
CC[C@@H]1C(=O)N(C)c2cnc(Nc3ccc(C(=O)N[C@H]4CC[C@H](N5CCN(CC6CC6)CC5)CC4)cc3OC)nc2N1C(C)C	-0.038 (inactive)
CNC(=O)c1ccc(Nc2ncc(C(F)(F)F)c(NCc3nccnc3N(C)S(C)(=O)=O)n2)cc1	-0.199 (inactive)

For the molecule CCN(CCCOc1ccc2c(Nc3cc(CC(=O)Nc4cccc(F)c4)[nH]n3)ncnc2c1)CCOP(=O)(O)O , what log2 fold change is on record? -0.006 (inactive)

For the molecule FC(F)(F)c1ccc(/C=C/c2nc(COc3ccc(CCCCn4ccnn4)cc3)co2)cc1 , what log2 fold change is on record? -0.067 (inactive)

###

Reported log2 fold change values follow for various compounds
# Test System: ZWILCH (UniProt Q9H900)
# Sequence (Q9H900 whole entry, looked up): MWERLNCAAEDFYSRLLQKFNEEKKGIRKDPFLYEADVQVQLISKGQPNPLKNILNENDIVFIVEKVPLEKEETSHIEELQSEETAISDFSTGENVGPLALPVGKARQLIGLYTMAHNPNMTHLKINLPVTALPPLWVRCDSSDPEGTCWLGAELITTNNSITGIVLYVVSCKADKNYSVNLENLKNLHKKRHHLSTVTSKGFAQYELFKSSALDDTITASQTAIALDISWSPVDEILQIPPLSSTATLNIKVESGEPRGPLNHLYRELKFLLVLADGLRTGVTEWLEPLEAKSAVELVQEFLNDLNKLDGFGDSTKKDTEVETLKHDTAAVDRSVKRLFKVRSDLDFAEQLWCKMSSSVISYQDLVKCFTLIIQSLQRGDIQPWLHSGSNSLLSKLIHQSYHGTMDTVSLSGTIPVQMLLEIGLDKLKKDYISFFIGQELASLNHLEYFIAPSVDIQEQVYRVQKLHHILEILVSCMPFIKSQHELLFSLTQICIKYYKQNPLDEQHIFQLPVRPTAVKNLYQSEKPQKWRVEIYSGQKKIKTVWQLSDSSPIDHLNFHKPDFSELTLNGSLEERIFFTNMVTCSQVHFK
# Experiment Notes: log2 fold change, soluble protein after heating vs DMSO (PISA); higher = thermal stabilisation; K562 cells, 10 uM, 30 min; active = over 0.2 and 3.5 SD of the protein, either way, in both replicates (recomputed)
The full data set covers some 7,900 targets. This sample favours those with a hit. About 0.6% of all pairs of compound and target were hits.
Simply state the number, no unit and no words.

Compound	log2 fold change
Cc1cccc(-c2[nH]c(C(C)(C)C)nc2-c2ccc3nccnc3c2)n1	0

For the compound CN1CC[C@H](c2c(O)cc(O)c3c(=O)cc(-c4ccccc4Cl)oc23)[C@H](O)C1 , what log2 fold change is on record? -0.034

For the compound CC(=O)c1cnc2ccc(-c3cc(Cl)c(O)c(Cl)c3)nc2c1N[C@H]1CC[C@H](CN(C)C)CC1 , what log2 fold change is on record? 0.004

For the compound NC(=O)c1cnc(N[C@@H]2CCCC[C@@H]2N)nc1Nc1cccc(-n2nccn2)c1 , what log2 fold change is on record? -0.085

For the compound C[C@@H]1COCCN1c1cc(C2(S(C)(=O)=O)CC2)nc(-c2cccc3[nH]ccc23)n1 , what log2 fold change is on record? -0.04

For the compound CC(C)N(C[C@H]1O[C@@H](n2cnc3c(N)ncnc32)[C@H](O)[C@@H]1O)[C@H]1C[C@@H](CCc2nc3cc(C(C)(C)C)ccc3[nH]2)C1 , what log2 fold change is on record? 0.074

For the compound CC[C@@H]1C(=O)N(C)c2cnc(Nc3ccc(C(=O)NC4CCN(C)CC4)cc3OC)nc2N1C1CCCC1 , what log2 fold change is on record? -0.078

For the compound Oc1cc(-c2nc(-c3ccccc3)[nH]c2-c2ccncc2)ccc1Cl , what log2 fold change is on record? -0.002

For the compound CS(=O)(=O)N1CCN(Cc2cc3nc(-c4cccc5[nH]ncc45)nc(N4CCOCC4)c3s2)CC1 , what log2 fold change is on record? -0.026
